# tgt: RGS3, P49796-9
# Sequence (P49796 other isoform, or with tags, fused parts or gaps): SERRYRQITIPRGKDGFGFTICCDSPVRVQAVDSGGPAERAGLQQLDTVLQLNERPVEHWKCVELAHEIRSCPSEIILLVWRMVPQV
# assayComment: holdup assay
# Parameters: key: below the threshold = too weak to quantify, mostly under pKd 3.1 to 4
# settings: plain residues with an end cap or a label only (N-terminal biotin on a linker: ttds)

| binder | pKd |
| --- | --- |
| STLTIFETAL [ABCC4, O15439] | below the threshold |
| PKTPPTDTSV [KIR3DL3, Q8N743] | below the threshold |
| RSLEEEESQL [GRASP, Q7Z6J2] | below the threshold |

Data provenance is paper PMC9482650.
